Tested on: P388 leukemia ip, CD2F1 mice, survival T/C
Test Description: NCI In Vivo Anticancer Drug Screen. Data for tumor model P388 Leukemia (intraperitoneal) in CD2F1 (CDF1) mice
Condition Set: endpoint: median survival time; dose: 200.0 mg/kg/injection; schedule: Q01DX005 (ip); vehicle: saline with Tween-80; higher = longer survival
Toxic doses and inconclusive results are not listed.
What T/C was measured for each of the following?

# Molecule, Result
measured = [
    ("Cn1c(NCCN2CCOCC2)c(C(=O)/C=C/c2ccccc2)c(=O)n(C)c1=O", "95 % of control"),
    ("C=CCNC(=O)C(NC(=O)OCCCC)NC(=O)OCCCC", "87 % of control"),
    ("O=[N+]([O-])c1ccc(CS(=O)(=O)OCCCl)cc1", "94 % of control"),
]

The following molecules each have a reported value; give each one's T/C.
1. Cc1ccc(NC(=O)CCC(=O)C(C)C(=O)c2ccccc2)c(C)c1 (stereo unspecified)
2. COCNC(=S)c1ccc(C(N)=O)nc1C(=O)NC(C)(C)C
3. CC1CCC2(C)OC1OC2CN (stereo unspecified)
4. N=C(N)c1ccc(N=Nc2c(O)ccc3c2[nH]c2ccccc23)cc1
5. CC(C)CCCN(CCCC(C)C)CC(O)c1cc2c(c3ccccc13)CCCC2 (stereo unspecified)
6. O=S(=O)(Nc1ccc(Cl)c(C(F)(F)F)c1)c1ccc(F)cc1
7. COc1cc2c(cc1OC)[C@H](c1cc(Br)c(O)c(OC)c1)[C@H]1C(=O)OCC1C2 (stereo partly specified)
8. Nc1ccccc1C(=O)CCc1ccccc1C(=O)O

**Result**
1. 97 % of control
2. 99 % of control
3. 100 % of control
4. 106 % of control
5. 113 % of control
6. 98 % of control
7. 89 % of control
8. 96 % of control

* * *

What T/C was measured for each of the following?
Test system: P388 leukemia ip, CD2F1 mice, survival T/C
Test Description: NCI In Vivo Anticancer Drug Screen. Data for tumor model P388 Leukemia (intraperitoneal) in CD2F1 (CDF1) mice
Condition Set: endpoint: median survival time; dose: 400.0 mg/kg/injection; schedule: Q04DX002 (ip); vehicle: saline with Tween-80; higher = longer survival
Toxic doses and inconclusive results are not listed.

Take a look at these entries with their results.
# Compound, T/C
records = [
    ("CCn1cc(C(=O)O)c(=O)c2ccc(C)[n+](CCSC(=N)N)c21", "100 % of control"),
    ("CCCCCC1CCCC2NC(=O)CCC12 (stereo not given)", "89 % of control"),
    ("Cc1cc2c(c(=O)o1)C1=S(SC(c3ccccc3)=C1)S2 (stereo not given)", "105 % of control"),
    ("Cc1ccc(S(=O)(=O)O/N=C(/CC/C(=N\\OS(=O)(=O)c2ccc(C)cc2)c2ccccc2)c2ccccc2)cc1", "96 % of control"),
    ("O=C(O)c1cn2ccccc2c1[N+](=O)[O-]", "96 % of control"),
    ("CCc1ccc2c(c1OCOC)CCC2", "95 % of control"),
]

The following compounds each have a reported value; give each one's T/C.
1. O=C1C2=C(OCCO2)C(=O)C2=C1OCCO2
2. CCOC(=O)C1(Br)CC2(C1)CC(Br)(C(=O)OCC)C2 (stereo not given)

**Result**
106 % of control
100 % of control

The following compounds each have a reported value; give each one's T/C.
1. CCOC(=O)C(=CC=C(C(=O)OCC)C(=O)OCC)C(=O)OCC
2. CS/C(N)=N/NC(=O)CCC(=O)Nc1cc(C)ccc1C

**Result**
115 % of control
90 % of control

* * *

System: P388 leukemia ip, CD2F1 mice, survival T/C
Test Description: NCI In Vivo Anticancer Drug Screen. Data for tumor model P388 Leukemia (intraperitoneal) in CD2F1 (CDF1) mice
Condition Set: endpoint: median survival time; dose: 60.0 mg/kg/injection; schedule: Q01DX005 (ip); vehicle: saline; higher = longer survival
Toxic doses and inconclusive results are not listed.
Metric: T/C

# Compound, T/C
data = [
    ("CC1SC(C)C1=O (configuration not stated)", "109 % of control"),
    ("CC1=C(C)C2C3C(=O)NC(=O)C3C1C1C3C(=O)NC(=O)C3C21 (configuration not stated)", "101 % of control"),
    ("O=C1NC2CC1C(O)C2O (configuration not stated)", "101 % of control"),
    ("NC(=O)CNCC1Cc2ccccc21 (configuration not stated)", "102 % of control"),
]

The following compounds each have a reported value; give each one's T/C.
1. C1CCCc2c(-c3noc4c3CCCCCC4)noc2CC1
2. O=C(COc1ccc(Cl)cc1)OCCN1CCCCCC1
3. COc1cc(C(=O)n2c(=O)oc(=O)c3cc([N+](=O)[O-])ccc32)cc(OC)c1OC

**Result**
["98 % of control", "109 % of control", "101 % of control"]

* * *

System: P388 leukemia ip, CD2F1 mice, survival T/C
Test Description: NCI In Vivo Anticancer Drug Screen. Data for tumor model P388 Leukemia (intraperitoneal) in CD2F1 (CDF1) mice
Condition Set: endpoint: median survival time; dose: 100.0 mg/kg/injection; schedule: Q01DX009 (ip); vehicle: saline with Tween-80; higher = longer survival
Toxic doses and inconclusive results are not listed.
What T/C was measured for each of the following?

Take a look at these entries with their results.
# Compound, T/C
measured = [
    ("Cc1ccc(-c2nc3ccccc3c(=O)n2C(C)C)cc1", "98 % of control"),
    ("CCCCCCCCCC#CC(=O)O", "110 % of control"),
    ("CC(=O)CCC(=O)OC(C)(C)CN", "100 % of control"),
]

The following compounds each have a reported value; give each one's T/C.
1. CCOC(=O)C(Cc1ccccc1[N+](=O)[O-])(NC(C)=O)C(=O)OCC
2. Cc1[nH]cc2c1C(c1ccccc1)=NCC(=O)N2
3. CN1C(=O)c2ccccc2Cc2c(NCc3ccccc3)ncnc21
4. COC(=O)/C(Br)=C/N(Cc1ccccc1)Cc1ccccc1
5. O=C1c2ccccc2C(=O)c2c(NCCN3CCOCC3)ccc(NCCN3CCOCC3)c21
6. C=CCCCn1nc(-c2ccccc2)c(-c2ccccc2)n1
7. CC(C)C([N+](C)(C)C)P(=O)([O-])O (configuration not stated)
8. CC(C)(C)N=C(Cc1ccccc1)N1CCCCC1

**Result**
["93 % of control", "100 % of control", "104 % of control", "110 % of control", "109 % of control", "100 % of control", "100 % of control", "96 % of control"]

**Query** Please give the documented T/C of CC1SC(=S)N(c2ccccc2)C1=O (configuration not stated)
**Result** 100 % of control

* * *

Test system: P388 leukemia ip, CD2F1 mice, survival T/C
Test Description: NCI In Vivo Anticancer Drug Screen. Data for tumor model P388 Leukemia (intraperitoneal) in CD2F1 (CDF1) mice
Condition Set: endpoint: median survival time; dose: 6.25 mg/kg/injection; schedule: Q01DX009 (ip); vehicle: distilled water + Tween-80
Inconclusive results and toxic doses are left out. The calls were made as follows: active = survival T/C of 150% or more; inactive = T/C below 125% in these data.
Pick one and only one: YES = active, NO = inactive

Please review the following examples before continuing.
# Molecule, Category Label
records = [
    ("O=C1C=C(NCCNCCO)C(=O)c2ccccc21", "NO"),
    ("CCOC(=O)CC1(O)C=C(C)C(=O)C(C)=C1", "NO"),
    ("Cn1c(-c2ccccc2)c(COC(=O)NC2CCCCC2)c(COC(=O)NC2CCCCC2)c1-c1ccc(Cl)cc1", "NO"),
]

**Query** Short answer needed: outcome of this test for CNC(=O)OCc1c(COC(=O)NC)c(-c2ccc(Cl)cc2)n(C)c1C ?
**Result** YES

* * *

Tested on: P388 leukemia ip, CD2F1 mice, survival T/C
Test Description: NCI In Vivo Anticancer Drug Screen. Data for tumor model P388 Leukemia (intraperitoneal) in CD2F1 (CDF1) mice
Condition Set: endpoint: median survival time; dose: 120.0 mg/kg/injection; schedule: Q01DX005 (ip); vehicle: Klucel (hydroxypropylcellulose) (HPC); higher = longer survival
Inconclusive results and toxic doses are left out.
Metric: T/C

Take a look at these entries with their results.
# Compound, Metric, Result
measured = [
    ("COc1ccc(-c2cc(=O)c3cc(C)c(C)c(C#N)c3o2)cc1", "T/C", "86 % of control"),
    ("Cc1cc2c(cc1C)NC(=O)C(NC(=O)c1ccc(Cl)cc1)C=N2 (stereo unspecified)", "T/C", "93 % of control"),
    ("CCCOC1(C)CC(c2cc(OC)c(OC)c(OC)c2)c2cc3c(cc2O1)OCO3 (stereo unspecified)", "T/C", "91 % of control"),
    ("CCOC(=O)c1cn(CC)c2c(ccc3cnccc32)c1=O", "T/C", "100 % of control"),
    ("CCOC(=O)NN(C(=O)OCC)C(C(C)=O)c1ccccc1 (stereo unspecified)", "T/C", "103 % of control"),
    ("OCC1CCC(O)C=C2CCCC21 (stereo unspecified)", "T/C", "103 % of control"),
]

The following compounds each have a reported value; give each one's T/C.
1. CSc1ccc2ccccc2c1/C=[N+](/[O-])c1ccccc1
2. CC(=O)N1C(=O)CC23c4cccc([N+](=O)[O-])c4C(=O)N2CCCN13 (stereo unspecified)
3. Nc1nc2ncnc(N)c2nc1-c1ccc(N(CCO)CCO)cc1
4. CCOC(=O)c1ccc(NC(=O)Nc2cc(OC)ccc2OC)cc1

**Result**
["97 % of control", "97 % of control", "90 % of control", "99 % of control"]

The following compounds each have a reported value; give each one's T/C.
1. OCC(O)Cn1cnc2c(NO)ncnc21 (stereo unspecified)
2. Nc1nc(SCC(=O)O)[nH]c(=O)c1NS(=O)(=O)c1cccc([N+](=O)[O-])c1
3. CCOC1(OCC)Oc2c(Cl)c(Cl)c(Cl)c(Cl)c2OC1(OCC)OCC
4. CC1CC(C)CN(S(=O)(=O)c2cc(Cl)c(Oc3ccc([N+](=O)[O-])cc3Cl)c(Cl)c2)C1 (stereo unspecified)
5. COc1ccc(C2OC3=C(Nc4ccccc4N3)C2=O)cc1 (stereo unspecified)
6. COc1ccc(C2c3cc4c(cc3OC(C)(O)C2C)OCO4)cc1 (stereo unspecified)

**Result**
["95 % of control", "93 % of control", "100 % of control", "100 % of control", "97 % of control", "98 % of control"]

The following compounds each have a reported value; give each one's T/C.
1. CC(O)CCC(=O)c1nc2ccccc2s1 (stereo unspecified)
2. NC(=O)N/N=C1/CCCCCC1(c1ccccc1)c1ccccc1
3. Cc1cccc(Nc2c(C(=O)O)cnc3cc4c(cc23)OCO4)c1
4. Cc1c(OCC(=O)N/N=C/c2ccc(N(CCCl)CCCl)cc2)ccc2c(=O)c3ccccc3oc12
5. CCc1c(C)nc2cc(-c3cc(C)n4c(=O)c(CC)c(C)nc4c3)cc(C)n2c1=O
6. FC(F)(F)c1ccc(-c2nn[nH]n2)cc1
7. COc1ccc(C2CC(C)(O)Oc3cc4c(cc32)OCO4)cc1 (stereo unspecified)

**Result**
["100 % of control", "91 % of control", "94 % of control", "98 % of control", "96 % of control", "101 % of control", "89 % of control"]
